- target under test: IKK2 (IKKβ), rhIKK2 homodimer (Homo sapiens)
- Construct: made in house; host or cells: insect cells (baculovirus; SF9)
- Sequence (O14920 1-756): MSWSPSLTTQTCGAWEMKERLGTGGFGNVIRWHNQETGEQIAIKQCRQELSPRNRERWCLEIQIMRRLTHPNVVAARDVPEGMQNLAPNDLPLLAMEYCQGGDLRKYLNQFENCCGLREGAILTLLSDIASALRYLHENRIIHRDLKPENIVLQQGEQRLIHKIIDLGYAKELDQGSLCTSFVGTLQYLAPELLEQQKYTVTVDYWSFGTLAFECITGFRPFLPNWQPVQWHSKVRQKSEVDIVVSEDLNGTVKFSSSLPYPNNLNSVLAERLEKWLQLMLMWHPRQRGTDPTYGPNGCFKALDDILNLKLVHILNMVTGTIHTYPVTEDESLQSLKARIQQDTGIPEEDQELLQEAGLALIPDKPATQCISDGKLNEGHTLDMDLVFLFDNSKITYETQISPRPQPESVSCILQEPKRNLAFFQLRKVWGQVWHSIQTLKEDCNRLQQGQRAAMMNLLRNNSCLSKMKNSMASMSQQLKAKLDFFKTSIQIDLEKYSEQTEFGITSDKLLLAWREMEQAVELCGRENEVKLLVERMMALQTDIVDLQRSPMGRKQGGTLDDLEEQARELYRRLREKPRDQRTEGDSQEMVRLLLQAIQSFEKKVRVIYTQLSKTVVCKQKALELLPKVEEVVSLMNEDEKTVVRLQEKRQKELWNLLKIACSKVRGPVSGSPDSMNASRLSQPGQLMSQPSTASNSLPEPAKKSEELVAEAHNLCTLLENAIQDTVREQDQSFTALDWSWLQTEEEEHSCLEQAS
- experimental details: IKKβ (IKK2) Resin Enzyme Assay
- Assay type: biochemical
- conditions: Table 4; values given as bins; read-out: IKK2 Resin IC 50
property name: IC50

Example cases with answers are listed next.
- query smiles: "NC(=O)c1nn(-c2ccc3c(c2)OCO3)c2c1ccc1ccc(N)cc12"
  IC50: "1000 to 10000 nM"
- query smiles: "NC(=O)c1nn(-c2ccc3c(c2)OCO3)c2c1ccc1ccc(NC(=O)c3ccncc3Cl)cc12"
  IC50: "≤ 1000 nM"
- query smiles: "NC(=O)c1nn(-c2ccc3c(c2)OCO3)c2c1cc(Br)c1ccc(NC(=O)c3cccnc3Cl)cc12"
  IC50: "≤ 1000 nM"
- query smiles: "NC(=O)c1nn(-c2ccc3c(c2)OCO3)c2c1ccc1ccc(NC(=O)c3ccccc3Cl)cc12"
  IC50: "≤ 1000 nM"

Below: the item to evaluate.
Read the entry NC(=O)c1nn(-c2ccc3c(c2)OCO3)c2c1ccc1ccc(NC(=O)c3cccnc3Cl)cc12 and write its reported IC50.
≤ 1000 nM
